molecules and their reported z-score
- Procedure details: basal 3T3-L1 adipocyte mitochondrial potential changes, profiling panel, cell-based, JC-1 fluorescence, 3T3-L1 adipocytes, 24 h, 100 nL compound (AID 1168); also: test concentration not given here
- Experimental context: JC-1 mitochondrial fluorescence, higher = more signal, called active from +8 up or from −8 down

Molecule	z-score
CCOC(=O)C1=CC[C@@H](c2ccccc2)N(S(=O)(=O)c2ccc(C)cc2)[C@H]1c1cccc(OC)c1	-0.293
C=C(CCCC)C(=O)CC[C@H](OC(=O)c1ccccc1-c1ccccc1C(=O)O)c1ccccc1OCCO	0.954
C=CCNC(=O)[C@@H]1[C@H]2C(=O)O[C@H](c3ccccc3)[C@H](c3ccccc3)N2[C@H](c2ccc(O)cc2)[C@@]12C(=O)Nc1ccc(C#CCC(C(=O)OC)C(=O)OC)cc12	-0.271
COCCOC(=O)N1C(=O)[C@@]2(c3cc(C#CCC(C(=O)OC)C(=O)OC)ccc31)[C@H](c1ccc(OCCO)cc1)N1[C@H](c3ccccc3)[C@H](c3ccccc3)OC(=O)[C@H]1[C@@H]2C(=O)Nc1nc2ccccc2s1	0.578
Cc1c(NC(=O)/C(C#N)=C/c2ccccc2Cl)c(=O)n(-c2ccccc2)n1C	1.14
O=C1C2C=CC(C(O)c3ccco3)N(Nc3ccccc3)C2C(=O)N1c1ccccc1 (centres undefined)	0.255
CC(CO)N1C(=O)[C@@H]2[C@H]3C(=O)OCC=C[C@H]3OC23C=CCN(c2ccc(Cl)cc2)C(=O)[C@@H]13 (some centres undefined)	-0.574
CN1C=C(C(=O)OCCS(C)(=O)=O)C(C(=O)OCCS(C)(=O)=O)=CC(c2ccc(CO)cc2)=CC1c1cccs1 (centres undefined)	-0.345
CN(C)C(=O)[C@@]1(Cc2ccccc2)COC(c2ccc(OCCCO)cc2)=N1	-0.384
[N-]=[N+]=Nc1ccccc1C[C@]1(C(=O)O)N=C(c2ccc(OCCCO)cc2)O[C@H]1c1ccccc1	-0.297
O=C1C2C=CC(C(O)c3ccc(I)cc3)N(Nc3ccccc3)C2C(=O)N1c1ccccc1 (centres undefined)	-1.3
C=CCOC(=O)[C@H]1[C@@H]2C(=O)O[C@@H](c3ccccc3)[C@@H](c3ccccc3)N2[C@@H](c2ccc(OCCOC(=O)[C@H]3C[C@H]4C(=O)N[C@@H](CCCCNC(C)=O)C(=O)N4[C@H]3c3cccc(OCCO)c3)cc2)[C@]12C(=O)Nc1ccc(I)cc12	0.622
C=CCC(OC(C)=O)[C@@H]1[C@@H](N(Cc2ccc(-c3cccc(C(F)(F)F)c3)o2)C(=O)c2cccc3ccccc23)c2cc(OCCCO)ccc2N1C(=O)Cc1ccc(OC)cc1 (some centres undefined)	0.0601
COc1ccc([Si](C)(C)[C@@H]2[C@@H](CC(=O)N3Cc4ccccc4C[C@H]3CO)O[C@]3(C(=O)N(c4ccccc4)c4ccccc43)[C@H]2C)cc1	0.631

====

compounds and their reported composite z-score
- Assay system: Follistatin-related protein 3 (Homo sapiens)
- Procedure details: FSTL3 binders on small-molecule microarrays, primary screen, biochemical, small-molecule microarray, 635 nm fluorescence (AID 1105);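 also: score merges emission near 667 nm and signal to noise per printed spot across three slides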
- Experimental context: FSTL3 binding, higher = more signal
Property label: composite z-score

Compound	Property label	Recorded result
O=C1C2C=CC(C(O)c3ccco3)N(Nc3ccccc3)C2C(=O)N1c1ccccc1 (stereo not given)	composite z-score	-0.713
COC(=O)[C@@]1(Cc2ccccc2CN=[N+]=[N-])N=C(c2ccc(OCCCO)cc2)O[C@H]1c1ccccc1	composite z-score	-0.153
C=C(CCCC)C(=O)CC[C@H](OC(C)=O)c1ccc(OCCO)cc1	composite z-score	-0.746
COc1ccc([Si](C)(C)[C@H]2[C@H](CCO)O[C@@]3(C(=O)N(Cc4ccccc4)c4ccc(N5C(=O)c6ccccc6Oc6ccccc65)cc43)[C@@H]2C)cc1	composite z-score	-0.734
COC(=O)[C@@]1(Cc2ccc(F)cc2)[C@H]2c3cc(C(=O)N(C)C)n(Cc4ccc(O)c(OC)c4)c3C[C@H]2CN1C(=O)c1ccccc1	composite z-score	0.0792
COC(=O)[C@@]1(Cc2ccc(OC)cc2)[C@H]2c3cc(C(=O)N4CCCC4)n(Cc4cc(C)n(C)n4)c3C[C@H]2CN1C(=O)c1ccccc1	composite z-score	0.0098
C=CCOC(=O)[C@H]1[C@@H]2C(=O)O[C@@H](c3ccccc3)[C@@H](c3ccccc3)N2[C@@H](c2ccc(OCCOC(=O)[C@H]3C[C@H]4C(=O)N[C@@H](CCCCNC(C)=O)C(=O)N4[C@H]3c3cccc(OCCO)c3)cc2)[C@]12C(=O)Nc1ccc(I)cc12	composite z-score	1.43
O=C1N(CCS(=O)(=O)c2ccccc2)Cc2ccccc2[C@@H]2OC(c3ccc(OCCCO)cc3)=N[C@]12CCS(=O)(=O)c1ccccc1	composite z-score	1.48
Cc1cccc([C@H]2C[C@H]3C(Br)=C[C@@H]2C(=O)[C@]32CO2)c1	composite z-score	-0.412
Cc1ccc(N2C(=O)c3ccccc3[C@](C)(C(=O)NCc3ccccc3)[C@@H]2c2ccc(CO)cc2)nc1	composite z-score	-0.192
C=C(/C(=C/C[C@H](OC(=O)c1ccncc1)c1ccccc1OCCO)c1cnc2ccccc2c1)C(C)C	composite z-score	1.59
C=C/C=C/[C@@H]1C(=C)CN([C@@H](Cc2ccccc2)C(=O)OC)[C@H]1[C@@H](O)Cc1ccccc1	composite z-score	0.509
COCCOC(=O)N1C(=O)[C@@]2(c3cc(C#CCC(C(=O)OC)C(=O)OC)ccc31)[C@H](c1ccc(O)cc1)N1[C@H](c3ccccc3)[C@H](c3ccccc3)OC(=O)[C@H]1[C@@H]2C(=O)NC[C@H](O)c1ccccc1	composite z-score	0.602
O=C1c2ccccc2[C@](Cc2ccccc2I)(C(=O)NC2CC2)[C@H](c2ccc(CO)cc2)N1Cc1ccccc1C(F)(F)F	composite z-score	0.32
CCOC(=O)C1=CCC(c2ccco2)N(S(=O)(=O)c2ccc(C)cc2)C1 (stereo not given)	composite z-score	1.22
O=C(NCCN1CCOCC1)[C@@H]1c2ccccc2C(=O)N(Cc2ccccc2)[C@H]1c1ccc(CO)cc1	composite z-score	-0.481
[N-]=[N+]=Nc1ccccc1C[C@@]1(C(=O)O)N=C(c2ccc(OCCCO)cc2)O[C@@H]1c1ccccc1N=[N+]=[N-]	composite z-score	0.626
CCOC(=O)C[C@H]1[C@H](OC(=O)c2ccc(-c3ccccc3)cc2)[C@@H](NC(=O)CC(C)C)c2cc(OCCCO)ccc2N1C(=O)c1ccccc1	composite z-score	0.648
O=C1OCC=C[C@H]2OC34C=CCN(c5ccc6ccccc6c5)C(=O)[C@H]3N(CCCCCO)C(=O)[C@@H]4[C@@H]12 (stereo not given in full)	composite z-score	-1.56
CC(C)CNC(=O)[C@@H]1c2ccccc2C(=O)N(C2CCCCC2)[C@H]1c1ccc(CO)cc1	composite z-score	-0.333
CO[C@H]1O[C@H](CO)[C@@H](OC(=O)Nc2ccc(C#N)cc2)[C@@H]2OC(=O)[C@H](Cc3cccc(Br)c3)C/C=C/C[C@@H](Cc3cccc(Br)c3)C(=O)O[C@@H]12	composite z-score	0.707
CN(C)C(=O)[C@@]1(Cc2ccccc2)COC(c2ccc(OCCCO)cc2)=N1	composite z-score	-0.718
CS(=O)(=O)CCOC(=O)C1=CC(CCCO)=CC(C2CC2)N(Cc2cccc(OC(F)(F)F)c2)C=C1C(=O)OCCS(C)(=O)=O (stereo not given)	composite z-score	0.054
C[C@]1(C(=O)O)c2ccccc2C(=O)N(Cc2ccc(OC(F)(F)F)cc2)[C@H]1c1ccc(CO)cc1	composite z-score	-0.0953
COc1cc(NN2C(C(O)c3ccccc3)C=CC3C(=O)N(C)C(=O)C32)cc(OC)c1OC (stereo not given)	composite z-score	0.362
C=C[C@@H](OC)[C@H](OC(=O)Nc1ccc(SC)cc1)c1ccc(OCCO)cc1	composite z-score	0.839
O=C1N[C@@H](Cc2ccccc2)C(=O)N2[C@@H]1C[C@@H](C(=O)O)[C@H]2c1ccc(O)cc1	composite z-score	1.45
C[C@@]12COC[C@]13C=C(Br)[C@H](C2)[C@@]1(CO1)C3=O	composite z-score	-0.449
O=C1NC(=O)C2C1C=CC(C(O)c1ccccn1)N2Nc1ccc(Cl)cc1Cl (stereo not given)	composite z-score	-0.196
CC1CC/C=C\[C@H]2OC34C=CCN(C(C)(C)C)C(=O)[C@H]3N(C(CO)C(C)C)C(=O)[C@@H]4C2C(=O)O1 (stereo not given in full)	composite z-score	0.27

====

compounds and their reported composite z-score
- Assay system: Torsin-1A (Homo sapiens)
- Procedure details: torsin A binders from cell lysate, primary screen, small-molecule microarray, wild-type, 635/667 nm (AID 1149)
- Experimental context: COS7 hTOR1A-WT lysate, 635 nm fluorescence, higher = more signal
Property label: composite z-score

Compound	Recorded result
O=C1C2C=CC(C(O)c3cccc(O)c3)N(Nc3ccccc3)C2C(=O)N1c1ccccc1 (stereo unspecified)	-0.338
CCCCC(=C=CC[C@H](O)c1ccc(OCCO)cc1)C[C@H](O)c1cc(Cl)cc(Cl)c1O	0.296
COCCOC(=O)N1C(=O)[C@@]2(c3ccccc31)[C@H](c1ccccc1OCCO)N1[C@H](c3ccccc3)[C@H](c3ccccc3)OC(=O)[C@H]1[C@@H]2C(=O)N1CCCCCCC1	2.69
CCCNC(=O)[C@@]1(Sc2ccc(C)cc2)CC(=O)N(C2CCCCC2)[C@@H]1c1ccc(CO)cc1I	0.0272
COC(=O)C(CC#Cc1ccc2c(c1)[C@]1(C(=O)N2)[C@H](c2ccc(OCCO)cc2)N2[C@H](c3ccccc3)[C@H](c3ccccc3)OC(=O)[C@H]2[C@@H]1C(=O)N1CCN(c2ncccn2)CC1)C(=O)OC	0.272
COCCOC(=O)N1C(=O)[C@@]2(c3cc(C#Cc4ccc(OC)cc4)ccc31)[C@H](C(=O)NC[C@H](O)c1ccccc1)[C@H]1C(=O)O[C@H](c3ccccc3)[C@H](c3ccccc3)N1[C@@H]2c1ccc(OCCO)cc1	0.161
